Ref: the supplement of paper PMC7877785

test: self-splicing fitness, log relative to wild type (ln ratio); higher = more splicing; Tetrahymena group I intron in knt gene, E. coli kanamycin selection, DiMSum; sequences stand for … in CUCUCU…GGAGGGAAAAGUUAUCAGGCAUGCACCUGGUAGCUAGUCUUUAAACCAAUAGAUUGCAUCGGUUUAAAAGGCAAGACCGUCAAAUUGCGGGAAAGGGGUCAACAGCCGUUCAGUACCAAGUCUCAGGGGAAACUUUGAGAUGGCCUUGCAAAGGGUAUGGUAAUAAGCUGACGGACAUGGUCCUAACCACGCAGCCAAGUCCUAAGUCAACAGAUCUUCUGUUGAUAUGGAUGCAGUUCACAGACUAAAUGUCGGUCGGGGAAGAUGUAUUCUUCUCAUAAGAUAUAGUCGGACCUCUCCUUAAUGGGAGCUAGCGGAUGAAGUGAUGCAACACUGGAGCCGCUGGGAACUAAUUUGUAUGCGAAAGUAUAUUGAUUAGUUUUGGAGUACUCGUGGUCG; settings: 30 °C;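 further: selection with 25 µg/mL kanamycin versus none on LB agar overnight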
Metric name: self-splicing fitness (ln)
Form rule: numeric answer, no unit written next to it.

sequence `AAAUAGCAAUAUUACGCGGG` , self-splicing fitness (ln) observed: -3.02

sequence `UAUUAGCAAUAUUACGCGUU` , self-splicing fitness (ln) observed: -3.05

sequence `CGACAGCAAUAUUACGCGCC` , self-splicing fitness (ln) observed: -2.02

* * *

For each record, write down the corresponding self-splicing fitness (ln).
assay: self-splicing fitness, log relative to wild type (ln ratio); higher = more splicing; Tetrahymena group I intron in knt gene, E. coli kanamycin selection, DiMSum; sequences stand for … in CUCUCU…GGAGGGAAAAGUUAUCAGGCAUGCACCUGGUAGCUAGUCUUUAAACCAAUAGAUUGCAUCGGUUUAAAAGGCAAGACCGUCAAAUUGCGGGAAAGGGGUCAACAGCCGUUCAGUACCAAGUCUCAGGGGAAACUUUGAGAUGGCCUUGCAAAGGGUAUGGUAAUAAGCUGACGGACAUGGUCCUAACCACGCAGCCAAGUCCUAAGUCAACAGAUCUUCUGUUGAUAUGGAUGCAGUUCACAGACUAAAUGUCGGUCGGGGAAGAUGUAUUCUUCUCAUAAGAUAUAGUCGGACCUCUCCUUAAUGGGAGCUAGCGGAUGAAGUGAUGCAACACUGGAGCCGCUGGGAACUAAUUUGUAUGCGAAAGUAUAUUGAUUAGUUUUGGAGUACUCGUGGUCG; conditions: 30 °C
Form rule: numeric answer, no unit written next to it.

sequence `UGCGAGCAAUAUUACGCGCU` , self-splicing fitness (ln) observed: -3.43

sequence `GGCUAGCAAUAUUACGGCUA` , self-splicing fitness (ln) observed: 0.235

sequence `AAGGAGCAAUAUUACGAGUU` , self-splicing fitness (ln) observed: -3.53

sequence `GGUCAGCAAUAUUACGUUCA` , self-splicing fitness (ln) observed: -0.169

sequence `CCCAAGCAAUAUUACGCUUC` , self-splicing fitness (ln) observed: -2.84

sequence `AUUAAGCAAUAUUACGGCAG` , self-splicing fitness (ln) observed: -1

sequence `CAUGAGCAAUAUUACGAGAU` , self-splicing fitness (ln) observed: -4.03

sequence `UCCUAGCAAUAUUACGACAG` , self-splicing fitness (ln) observed: -3.29

sequence `ACUAAGCAAUAUUACGAGUC` , self-splicing fitness (ln) observed: -3.83

sequence `UGAUAGCAAUAUUACGUAGU` , self-splicing fitness (ln) observed: -4.18

sequence `AAUCAGCAAUAUUACGUAGA` , self-splicing fitness (ln) observed: -0.378

sequence `UAUUAGCAAUAUUACGACAA` , self-splicing fitness (ln) observed: -0.602

sequence `CUCCAGCAAUAUUACGGCAC` , self-splicing fitness (ln) observed: -3.68

sequence `AGGUAGCAAUAUUACGAGAG` , self-splicing fitness (ln) observed: -3.89

sequence `CCCCAGCAAUAUUACGUGAA` , self-splicing fitness (ln) observed: -4.42

* * *

For each record, write down the corresponding self-splicing fitness (ln).
test: self-splicing fitness, log relative to wild type (ln ratio); higher = more splicing; Tetrahymena group I intron in knt gene, E. coli kanamycin selection, DiMSum; sequences stand for … in CUCUCU…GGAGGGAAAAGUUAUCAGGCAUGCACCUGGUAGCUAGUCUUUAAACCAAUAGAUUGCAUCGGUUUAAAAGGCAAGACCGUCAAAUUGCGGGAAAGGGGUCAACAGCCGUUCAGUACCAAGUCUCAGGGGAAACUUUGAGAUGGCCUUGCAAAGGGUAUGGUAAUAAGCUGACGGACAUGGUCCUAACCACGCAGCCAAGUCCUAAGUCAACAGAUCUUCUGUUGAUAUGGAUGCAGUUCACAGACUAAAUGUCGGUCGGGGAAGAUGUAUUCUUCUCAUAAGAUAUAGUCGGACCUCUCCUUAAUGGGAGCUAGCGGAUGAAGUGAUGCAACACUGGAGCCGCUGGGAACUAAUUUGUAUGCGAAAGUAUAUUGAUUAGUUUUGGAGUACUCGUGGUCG; conditions: 37 °C
Form rule: numeric answer, no unit written next to it.

sequence `CCUCAGCAAUAUUACGUACG` , self-splicing fitness (ln) observed: -0.131

sequence `UUCGAGCAAUAUUACGGGCU` , self-splicing fitness (ln) observed: -3.81

sequence `CUAGAGCAAUAUUACGAUUC` , self-splicing fitness (ln) observed: -2.75

sequence `CCCGAGCAAUAUUACGCAGC` , self-splicing fitness (ln) observed: -2.05

sequence `UUCCAGCAAUAUUACGAUCG` , self-splicing fitness (ln) observed: -1.04

sequence `ACCGAGCAAUAUUACGACUC` , self-splicing fitness (ln) observed: -1.59

sequence `UCUUAGCAAUAUUACGCGCA` , self-splicing fitness (ln) observed: -1.53

sequence `AGAUAGCAAUAUUACGGAAC` , self-splicing fitness (ln) observed: -0.911

sequence `GCGAAGCAAUAUUACGUGAG` , self-splicing fitness (ln) observed: -2.01

sequence `ACCGAGCAAUAUUACGUCCA` , self-splicing fitness (ln) observed: -0.553

sequence `CUUUAGCAAUAUUACGCGAU` , self-splicing fitness (ln) observed: -0.751

sequence `AAGUAGCAAUAUUACGUGCU` , self-splicing fitness (ln) observed: -0.982

sequence `GGACAGCAAUAUUACGGGUG` , self-splicing fitness (ln) observed: -1.64

sequence `CCUUAGCAAUAUUACGCGUU` , self-splicing fitness (ln) observed: -2.12

sequence `GUUGAGCAAUAUUACGUGCG` , self-splicing fitness (ln) observed: -2.07

sequence `AUCUAGCAAUAUUACGAUGC` , self-splicing fitness (ln) observed: -1.33

sequence `UAAGAGCAAUAUUACGUGAU` , self-splicing fitness (ln) observed: -2.43

sequence `GAUAAGCAAUAUUACGUGCG` , self-splicing fitness (ln) observed: -0.166

sequence `CGGAAGCAAUAUUACGUGCG` , self-splicing fitness (ln) observed: -1.05

sequence `GCCAAGCAAUAUUACGACAG` , self-splicing fitness (ln) observed: -3.8

sequence `AGGCAGCAAUAUUACGGGCC` , self-splicing fitness (ln) observed: -1.52

sequence `UAAAAGCAAUAUUACGCACU` , self-splicing fitness (ln) observed: 0.0996

sequence `GACGAGCAAUAUUACGUUCA` , self-splicing fitness (ln) observed: -0.881

sequence `GGGCAGCAAUAUUACGAAAA` , self-splicing fitness (ln) observed: -2.31

sequence `AAGAAGCAAUAUUACGGAAG` , self-splicing fitness (ln) observed: -1.68

sequence `UGAUAGCAAUAUUACGAUUC` , self-splicing fitness (ln) observed: -2.41

sequence `CACAAGCAAUAUUACGCGCG` , self-splicing fitness (ln) observed: -0.607

sequence `GGACAGCAAUAUUACGAGUU` , self-splicing fitness (ln) observed: -1.24

sequence `CUCCAGCAAUAUUACGCUCG` , self-splicing fitness (ln) observed: -2.36

sequence `ACACAGCAAUAUUACGGACU` , self-splicing fitness (ln) observed: 0.0735

sequence `UUUGAGCAAUAUUACGAGUU` , self-splicing fitness (ln) observed: -1.87

sequence `UGUUAGCAAUAUUACGACGC` , self-splicing fitness (ln) observed: -1.47

sequence `UUGAAGCAAUAUUACGUCAC` , self-splicing fitness (ln) observed: -1.25

sequence `ACGCAGCAAUAUUACGGGCC` , self-splicing fitness (ln) observed: -0.893

sequence `UCAGAGCAAUAUUACGACGU` , self-splicing fitness (ln) observed: 0.0812

sequence `AACGAGCAAUAUUACGUGUC` , self-splicing fitness (ln) observed: -2.17

sequence `UCCGAGCAAUAUUACGCGUU` , self-splicing fitness (ln) observed: -1.95

sequence `AAUCAGCAAUAUUACGGGAU` , self-splicing fitness (ln) observed: -1.34

sequence `UCUGAGCAAUAUUACGCACA` , self-splicing fitness (ln) observed: -1.23

sequence `AGGUAGCAAUAUUACGCCGA` , self-splicing fitness (ln) observed: -0.334

sequence `AUGGAGCAAUAUUACGGGAU` , self-splicing fitness (ln) observed: -0.546

sequence `AGCUAGCAAUAUUACGCUAG` , self-splicing fitness (ln) observed: -2.23
